- Experiment notes: NCI Yeast Anticancer Drug Screen. Data for the bub3 strain (AID 167)
- Study conditions: S. cerevisiae bub3 mutant strain, at 5.0 µM (retest, dose inferred, filed as 0.5), hits give high values
- Protocol: Growth inhibition of yeast strains with defined genetic alterations is measured as a screen for potential anti-cancer activity. Selected strains with alterations in DNA damage repair or cell cycle control were exposed to compounds and growth inhibition was measured relative to vehicle treated controls. The strain used in this assay is bub3
Compounds without any hit were thinned out: in the full panel of roughly 79,000, 15% have a hit.
Catalogue of growth inhibition readings, one per entry.
# unit: % | format: bare number

Take a look at these entries with their results.
Compound	growth inhibition / %
C[Si](C)c1cccc(Cl)c1	1
CN(C)c1ccc(/C=C/c2nc3ccccc3s2)cc1	-3
CC[C@@]1(OP(=O)(O)O)C(=O)OCc2c1cc1n(c2=O)Cc2cc3ccccc3nc2-1	14
CC1(C)CC(=O)C(CC2C(=O)c3ccccc3C2=O)C(=O)C1C(=O)C(=O)Nc1cccc2ccc(O)cc12 (stereo unspecified)	30
N#CC(C(=O)C(=O)Nc1cccc(C(F)(F)F)c1)c1ccccc1 (stereo unspecified)	-10

# context switch: different compound, same growth inhibition
Req: Entry COc1ccc2c(c1)CCC/C2=N\NS(=O)(=O)c1c(C)cc(C)cc1C : reported growth inhibition = ?
Resp: 11

---

- Experiment notes: NCI Yeast Anticancer Drug Screen. Data for the bub3 strain (AID 167)
- Study conditions: S. cerevisiae bub3 mutant strain, at 5.0 µM (retest, dose inferred, filed as 0.5), hits give high values
This is part of a sample that, as a whole, favours compounds with a hit. Of some 79,000 tested, about 15% had one in any assay.
Catalogue of growth inhibition readings, one per entry.
# unit: % | format: bare number

Take a look at these entries with their results.
Compound	Units text	Obs value
CSC(=S)n1nc(-c2cccs2)c(N=Nc2ccc(Cl)cc2)c1C(F)(F)F	%	14
CCOC(=O)C(=Cc1ccccc1)C(=O)OCC	%	48

Req: Entry COc1cc(C(c2cc3c(cc2OC(C)=O)OCO3)C(C)C(C)=O)cc(OC)c1OC (stereo not given) : reported growth inhibition = ?
Resp: 1

Req: Entry COc1cc(Nc2ccc(Oc3ccc(O)cc3)cc2)c2ncccc2c1 : reported growth inhibition = ?
Resp: -9

---

- Experiment notes: NCI Yeast Anticancer Drug Screen. Data for the mlh1 rad18 strain (AID 175)
- Study conditions: S. cerevisiae mlh1 rad18 strain growth inhibition; at 50.0 µM; hits give high values
Compounds without any hit were thinned out: in the full panel of roughly 79,000, 15% have a hit.
Decide by growth inhibition: equal to or exceeding 70% means 1, less means -1.

Compound	Group label
CCCCCCCCCCCCCCCCC/C=N\NC(=O)CCCC(=O)N/N=C/CCCCCCCCCCCCCCCCC	1
Clc1ccc(C2=CCN3CC=C(c4ccc(Cl)cc4)C23)cc1	1
O=C(Nc1ccc(Br)cc1)c1cc(Br)c(O)c(Br)c1O	1
Cc1ccc(S(=O)(=O)OC(C=O)C(O)C(O)COC(c2ccccc2)(c2ccccc2)c2ccccc2)cc1 (stereo unspecified)	1
Cc1cccc(C)c1NC(=O)CSC(N)=O	1
Cc1ccc2c(c1)-c1c(c3c(c4c1-c1cc(C)ccc1CC4)C(=O)OC3=O)CC2	-1
CCCCNc1ccc(C(=O)OC2CCN(C)CC2)c(Cl)c1	1
COC([C@@H](OC(=O)c1ccccc1)[C@H](OC(=O)c1ccccc1)C(O)COC(=O)c1ccccc1)n1cc(C)c(=O)[nH]c1=O (stereo partly specified)	-1

Req: # check: growth inhibition of COc1cc(-c2oc(C=Nc3ccccc3)c([N+](=O)[O-])c2-c2ccc(O)c(OC)c2)ccc1O is greater than or equal to 70%
Resp: -1

Req: # check: growth inhibition of CC(=O)Nc1ccc(C(C)(C)c2ccc(C)cc2)cc1 is greater than or equal to 70%
Resp: -1
